The molecules listed here are annotated with their IC50.
- system.tested: purified recombinant rhodesain (Trypanosoma brucei rhodesiense, UniProt Q95PM0)
- Sequence (Q95PM0 entry or part of it): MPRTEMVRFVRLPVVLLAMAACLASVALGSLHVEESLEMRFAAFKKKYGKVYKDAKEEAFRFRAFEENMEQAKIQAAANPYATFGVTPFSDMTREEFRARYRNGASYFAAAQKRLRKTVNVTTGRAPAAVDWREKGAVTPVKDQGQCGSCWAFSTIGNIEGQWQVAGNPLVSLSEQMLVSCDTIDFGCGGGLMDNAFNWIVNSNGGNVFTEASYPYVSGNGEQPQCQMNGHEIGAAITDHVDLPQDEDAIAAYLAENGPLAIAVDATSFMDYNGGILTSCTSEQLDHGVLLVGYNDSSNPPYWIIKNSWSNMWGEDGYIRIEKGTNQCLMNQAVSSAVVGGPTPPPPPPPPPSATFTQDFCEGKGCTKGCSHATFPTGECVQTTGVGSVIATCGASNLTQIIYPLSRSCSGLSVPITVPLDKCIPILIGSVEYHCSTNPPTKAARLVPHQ
- measurement.protocol: Rhodesain IC50 determination
- Format: biochemical, Trypanosoma brucei rhodensiense
- condition.description: IC50 Rhodesain, rhodesain 3 nM, 5 minutes preincubation at room temperature, pH 5.5
Just the number in nM, nothing appended.

Illustrative cases are given below, each with its answer.
molecule | system.tested | test.readout | result.number
CC(C)C[C@H](NC(=O)OCc1ccccc1)C(=O)NC(=CCS(=O)(=O)c1ccccc1)Cc1ccccc1 (single isomer, unassigned) [Cbz-Leu-Phe-AS-Ph (Isomer B)] | purified recombinant rhodesain (Trypanosoma brucei rhodesiense, UniProt Q95PM0) | IC50 | 180
CC(C)[C@H](NC(=O)OCc1ccccc1)C(=O)NC(=CCS(=O)(=O)c1ccccc1)Cc1ccccc1 (mixture of isomers) [Cbz-Val-Phe-AS-Ph] | purified recombinant rhodesain (Trypanosoma brucei rhodesiense, UniProt Q95PM0) | IC50 | 5000

Lab note: next molecule to report on.
QUERY: Using the record for CC(C)C[C@H](NC(=O)OCc1ccccc1)C(=O)NC(=CCS(=O)(=O)c1ccccc1)Cc1ccccc1 (single isomer, unassigned) [Cbz-Leu-Phe-AS-Ph (Isomer A)] , report its IC50.
RESULT: 40

----------
- system.tested: cathepsin B (Homo sapiens)
- measurement.protocol: Cathepsin B incubation method inhibition assay
- Assay type: biochemical
- condition.description: pH 6.0, 23° C., N.I. = no inhibition after 20 minutes of incubation

compound | system.tested | kobs/[I] Cathepsin B
CC(C)[C@H](NC(=O)OCc1ccccc1)C(=O)NC(=CCS(=O)(=O)c1ccccc1)Cc1ccccc1 (mixture of isomers) | cathepsin B (Homo sapiens) | N.I.
CC(C)C[C@H](NC(=O)OCc1ccccc1)C(=O)NC(=CCS(=O)(=O)c1ccccc1)Cc1ccccc1 (single isomer, unassigned) [Cbz-Leu-Phe-AS-Ph (Isomer B)] | cathepsin B (Homo sapiens) | N.I.
CC(C)C[C@H](NC(=O)OCc1ccccc1)C(=O)N[C@H](C=CS(=O)(=O)c1ccccc1)Cc1ccccc1 [reference compound] | cathepsin B (Homo sapiens) | N.I.
CC(C)C[C@H](NC(=O)OCc1ccccc1)C(=O)NC(=CCS(=O)(=O)c1ccccc1)Cc1ccccc1 (single isomer, unassigned) [Cbz-Leu-Phe-AS-Ph (Isomer A)] | cathepsin B (Homo sapiens) | N.I.

----------
- system.tested: purified recombinant cruzain (Trypanosoma cruzi)
- Sequence (P25779 123-467): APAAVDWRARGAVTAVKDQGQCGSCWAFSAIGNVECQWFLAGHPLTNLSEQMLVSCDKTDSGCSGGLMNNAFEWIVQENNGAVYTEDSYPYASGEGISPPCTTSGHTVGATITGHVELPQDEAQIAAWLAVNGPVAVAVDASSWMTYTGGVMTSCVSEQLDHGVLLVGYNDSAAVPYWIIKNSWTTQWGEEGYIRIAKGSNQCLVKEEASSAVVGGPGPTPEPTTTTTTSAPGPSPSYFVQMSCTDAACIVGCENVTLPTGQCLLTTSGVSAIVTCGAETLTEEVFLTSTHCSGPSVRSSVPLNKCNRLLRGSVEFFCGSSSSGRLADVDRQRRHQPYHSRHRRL
- measurement.protocol: Cruzain IC50 determination
- Type: biochemical
- condition.description: IC50 Cruzain, cruzain 2 nM, 5 minutes preincubation at room temperature, pH 5.5
test.readout: IC50 (µM)
Just the number in µM, nothing appended.

QUERY: Using the record for CC(C)C[C@H](NC(=O)OCc1ccccc1)C(=O)N[C@H](C=CS(=O)(=O)c1ccccc1)Cc1ccccc1 [reference compound] , report its IC50.
RESULT: 2

----------
- system.tested: purified recombinant rhodesain (Trypanosoma brucei rhodesiense, UniProt Q95PM0)
- measurement.protocol: Rhodesain IC50 determination
- Type: biochemical, Trypanosoma brucei rhodensiense
- condition.description: rhodesain 3 nM, 5 minutes preincubation at room temperature, pH 5.5; read-out: IC50 Rhodesain
test.readout: pIC50
As a rule, pIC50 stands for the negative log10 of the concentration, concentration in M.

QUERY: Can you look up pIC50 on purified recombinant rhodesain (Trypanosoma brucei rhodesiense, UniProt Q95PM0) for CC(C)C[C@H](NC(=O)OCc1ccccc1)C(=O)N[C@H](C=CS(=O)(=O)c1ccccc1)Cc1ccccc1 [reference compound] ?
RESULT: 6.30

Numbers sourced from patent US7521427B2.
